# targetSystem: Transcriptional activator protein TraR (Agrobacterium tumefaciens)
# procedureDetails: Agonist activity at Agrobacterium tumefaciens WCF (pCF372) TraR at 10 uM after 8 hrs by beta-galactosidase reporter gene assay relative to […]
# Assay type: functional
Activity values, listed per item
Write down the numeric answer in % and omit the unit.

Please review the entries below; each comes with its answer.
molecule | u | Activity
CCCCCCCCCC(=O)CC(=O)N[C@H]1CCSC1=O | % | 1
CCCCCCCC(=O)N[C@H]1CCSC1=O | % | 0
CCCCCC(=O)CC(=O)N[C@H]1CCSC1=O | % | 50
O=C(CCc1cc2ccccc2[nH]1)N[C@H]1CCSC1=O | % | 0
CCCCCCCCCC(=O)CC(=O)NC1CCSC1=O (racemic) | % | 1
O=C(Cc1ccc(-c2ccccc2)cc1)NC1CCSC1=O (racemic) | % | 11

Note: attention shifts to another entry.
Input: Find the recorded Activity belonging to O=C(Cc1cccc([N+](=O)[O-])c1)N[C@H]1CCSC1=O and report it.
Output: 1

* * *

# targetSystem: Transcriptional activator protein LuxR (Aliivibrio fischeri)
# Sequence (whole entry): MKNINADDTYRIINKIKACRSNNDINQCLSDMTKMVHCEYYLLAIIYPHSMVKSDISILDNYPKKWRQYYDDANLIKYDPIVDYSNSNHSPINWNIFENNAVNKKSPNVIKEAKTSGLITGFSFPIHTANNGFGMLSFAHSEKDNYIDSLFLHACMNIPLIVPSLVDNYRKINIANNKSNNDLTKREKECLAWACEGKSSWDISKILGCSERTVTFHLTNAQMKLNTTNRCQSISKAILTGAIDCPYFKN
# procedureDetails: Antagonist activity at Vibrio fischeri ESI 114 (delta-LuxI) LuxR assessed as inhibition of […]-induced quorum sensing activation at 10 uM after 8 hrs by […] relative to untreated control
# Type: functional
reportedEndpoint: inhibition (%)
Write down the numeric answer in % and omit the unit.

Please review the entries below; each comes with its answer.
molecule | inhibition [%]
CCCC(=O)N[C@H]1CCSC1=O | 42
O=C(CCc1cc2ccccc2[nH]1)NC1CCSC1=O (racemic) | 75
COc1ccc(CC(=O)N[C@H]2CCSC2=O)cc1 | 70
O=C(Cc1ccc(Br)cc1)NC1CCSC1=O (racemic) | 91
COc1ccc(CC(=O)NC2CCSC2=O)cc1 (racemic) | 59

Input: Hello, I am looking for reported inhibition with Transcriptional activator protein LuxR (Aliivibrio fischeri) for O=C(Cc1ccccc1)NC1CCSC1=O (racemic) . Could you help?
Output: 30

Input: Hello, I am looking for reported inhibition with Transcriptional activator protein LuxR (Aliivibrio fischeri) for O=C(Cc1ccc(Br)cc1)N[C@H]1CCSC1=O . Could you help?
Output: 97

Input: Hello, I am looking for reported inhibition with Transcriptional activator protein LuxR (Aliivibrio fischeri) for CCCCCCC(=O)N[C@H]1CCSC1=O . Could you help?
Output: 78

Input: Hello, I am looking for reported inhibition with Transcriptional activator protein LuxR (Aliivibrio fischeri) for CCCCCC(=O)CC(=O)N[C@H]1CCSC1=O . Could you help?
Output: 99

Input: Hello, I am looking for reported inhibition with Transcriptional activator protein LuxR (Aliivibrio fischeri) for O=C(Cc1cccc([N+](=O)[O-])c1)N[C@H]1CCSC1=O . Could you help?
Output: 19

Input: Hello, I am looking for reported inhibition with Transcriptional activator protein LuxR (Aliivibrio fischeri) for CCCCCCCCCC(=O)CC(=O)N[C@H]1CCSC1=O . Could you help?
Output: 99

Input: Hello, I am looking for reported inhibition with Transcriptional activator protein LuxR (Aliivibrio fischeri) for O=C(Cc1ccc(-c2ccccc2)cc1)N[C@H]1CCSC1=O . Could you help?
Output: 98

Input: Hello, I am looking for reported inhibition with Transcriptional activator protein LuxR (Aliivibrio fischeri) for CCCC(=O)CC(=O)N[C@H]1CCSC1=O . Could you help?
Output: 62

* * *

IC50 values, listed per item
# targetSystem: Transcriptional activator protein TraR (Agrobacterium tumefaciens, UniProt P33905)
# Sequence (P33905 whole entry): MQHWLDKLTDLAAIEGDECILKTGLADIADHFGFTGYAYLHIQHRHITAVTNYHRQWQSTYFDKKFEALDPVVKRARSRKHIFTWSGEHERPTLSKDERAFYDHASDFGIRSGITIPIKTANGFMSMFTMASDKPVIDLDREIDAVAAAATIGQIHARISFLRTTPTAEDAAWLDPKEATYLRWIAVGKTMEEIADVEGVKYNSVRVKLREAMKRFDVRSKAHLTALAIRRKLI
# procedureDetails: Antagonist activity at Agrobacterium tumefaciens WCF (pCF372) TraR assessed as inhibition of OOHL-induced quorum sensing activation after 8 hrs by beta-galactosidase reporter gene assay
Please make sure the unit comes right after the number.

molecularString | reported
CCCCCCC(=O)N[C@H]1CCSC1=O | 10 µM

Note: attention shifts to another entry.
Input: Find the recorded IC50 belonging to CCCC(=O)CC(=O)N[C@H]1CCSC1=O and report it.
Output: 3.2 µM

* * *

# targetSystem: Transcriptional activator protein LasR (Pseudomonas aeruginosa (strain ATCC 15692 / PAO1 / 1C / PRS 101 / LMG12228), UniProt P25084)
# procedureDetails: Agonist activity at Pseudomonas aeruginosa PAO1 MW1 (pUM15) LasR assessed as quorum sensing activation after 8 hrs by […]
reportedEndpoint: EC50 (µM)
Write down the numeric answer in µM and omit the unit.

Input: Find the recorded EC50 belonging to CCCC(=O)CC(=O)N[C@H]1CCSC1=O and report it.
Output: 13

* * *

# targetSystem: Transcriptional activator protein LasR (Pseudomonas aeruginosa (strain ATCC 15692 / PAO1 / 1C / PRS 101 / LMG12228))
# Sequence (P25084 whole entry): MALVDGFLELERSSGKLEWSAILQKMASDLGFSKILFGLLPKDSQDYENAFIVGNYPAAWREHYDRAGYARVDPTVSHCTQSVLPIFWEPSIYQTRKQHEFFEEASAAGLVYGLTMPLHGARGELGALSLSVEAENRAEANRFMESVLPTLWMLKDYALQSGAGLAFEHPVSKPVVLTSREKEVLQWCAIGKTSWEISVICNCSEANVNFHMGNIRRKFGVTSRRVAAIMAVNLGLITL
# procedureDetails: Agonist activity at Pseudomonas aeruginosa PAO1 MW1 (pUM15) LasR after 8 hrs by YFP fluorescence reporter gene assay relative to OdDHL
pEC50 values, listed per item
pEC50 field: float, defined as -log10 of concentration (mol/L).

molecularString | pEC50
CCCCCCCCCCCC(=O)N[C@H]1CCSC1=O | 4.68

Note: attention shifts to another entry.
Input: Find the recorded pEC50 belonging to CCCC(=O)CC(=O)N[C@H]1CCSC1=O and report it.
Output: 4.89

* * *

# targetSystem: Transcriptional activator protein LuxR (Aliivibrio fischeri) (UniProt P12746)
# procedureDetails: Agonist activity at Vibrio fischeri ESI 114 (delta-LuxI) LuxR at 10 uM after 8 hrs by […] relative to […]
# Assay type: functional
Activity values, listed per item
Write down the numeric answer in % and omit the unit.

Please review the entries below; each comes with its answer.
compound | targetSystem | Activity, %
O=C(Cc1ccc(-c2ccccc2)cc1)NC1CCSC1=O (racemic) | Transcriptional activator protein LuxR (Aliivibrio fischeri) (UniProt P12746) | 0
O=C(CCc1cc2ccccc2[nH]1)NC1CCSC1=O (racemic) | Transcriptional activator protein LuxR (Aliivibrio fischeri) (UniProt P12746) | 0
COc1ccc(CC(=O)N[C@H]2CCSC2=O)cc1 | Transcriptional activator protein LuxR (Aliivibrio fischeri) (UniProt P12746) | 1
O=C(Cc1cccc([N+](=O)[O-])c1)N[C@H]1CCSC1=O | Transcriptional activator protein LuxR (Aliivibrio fischeri) (UniProt P12746) | 21
CCCCCCCCCC(=O)CC(=O)N[C@H]1CCSC1=O | Transcriptional activator protein LuxR (Aliivibrio fischeri) (UniProt P12746) | 0
CCCC(=O)CC(=O)N[C@H]1CCSC1=O | Transcriptional activator protein LuxR (Aliivibrio fischeri) (UniProt P12746) | 0
CCCC(=O)N[C@H]1CCSC1=O | Transcriptional activator protein LuxR (Aliivibrio fischeri) (UniProt P12746) | 0

Note: attention shifts to another entry.
Input: Find the recorded Activity belonging to O=C(CCc1cc2ccccc2[nH]1)N[C@H]1CCSC1=O and report it.
Output: 0

* * *

# targetSystem: Transcriptional activator protein LuxR (Aliivibrio fischeri) (UniProt P12746)
# procedureDetails: Antagonist activity at Vibrio fischeri ESI 114 (delta-LuxI) LuxR assessed as inhibition of […]-induced quorum sensing activation at 10 uM after 8 hrs by […] relative to untreated control
# Format: functional
Classification field: Satisfied = inhibition at or over 70%; Not satisfied = inhibition under 70%.

compound | label
O=C(Cc1cccc([N+](=O)[O-])c1)NC1CCSC1=O (racemic) | Not satisfied
CCCCCCCCCCCC(=O)N[C@H]1CCSC1=O | Not satisfied
CCCCCC(=O)N[C@H]1CCSC1=O | Satisfied

Input: Item CCCCCCCCCC(=O)CC(=O)NC1CCSC1=O (racemic) with inhibition of 70% or above?
Output: Satisfied

Input: Item O=C(Cc1ccccc1)N[C@H]1CCSC1=O with inhibition of 70% or above?
Output: Not satisfied

Input: Item CCCCCCCC(=O)N[C@H]1CCSC1=O with inhibition of 70% or above?
Output: Satisfied

Input: Item O=C(Cc1ccc(-c2ccccc2)cc1)NC1CCSC1=O (racemic) with inhibition of 70% or above?
Output: Satisfied
